System: RNAi-treated eri-1 (mg366) nematodes
Assay: RNAi screening of olfactory receptor genes: chemotaxis assay of RNAi-treated nematodes to odorants
Assay type: in vivo, Caenorhabditis elegans
Settings: srh-104 RNAi-treated nematodes; low concentration of attractant
Description: The RNAi assay was carried out by performing an RNAi method involving the feeding (feeding RNAi method) of eri-1 (mg366) (19), using an Ahringer library (37). Nine adult eri-1 mutants were placed on an NGM plate containing isopropyl 1-D-1-thiogalactopyranoside (0.19 g/L), ampicillin (60 mg/L), and Escherichia coli (E. coli), and were then cultured for 4 days. […] The z score and a control value in each single test from 2SD were calculated in all days (Table 3) or every day. […]

chemical-structure: CCC(=O)C(C)=O
chemotaxis index: −0.30
//
chemical-structure: c1cnccn1
chemotaxis index: −0.18
//
chemical-structure: Cc1nc(C)c(C)s1
chemotaxis index: 0.65
//
chemical-structure: CCC(C)=O
chemotaxis index: 0.48
